system: MOLT-4 leukemia; assay: NCI tumour cell line growth inhibition, 48 h
Reported TGI by item:
endpoint-label: TGI (µM)

INSERT INTO measurements (compound, comparison_symbol, observed_result) VALUES
  ('Cc1ccc(CC(=O)Nc2ccc(NC(=O)/C=C/NC(=O)/C=C/c3ccc(-c4ccccc4)cc3)cc2C(=O)c2ccccc2)cc1', '=', 9.16),
  ('Cc1nn(-c2nc3ccccc3s2)c(C)c1Oc1ccccc1O', '=', 12.5),
  ('CC(C)CNC(=O)CCc1cccc2c1oc1c(CCN)cccc12', '=', 30.7),
  ('O=C(O)CN1CCNCCN(CP(=O)(O)O)CC1', '>', 100),
  ('Cc1[nH]c2ccccc2c1C1Cc2ccccc2N1C(=O)/C=C/C=C/c1ccccc1 (stereo not given)', '>', 100),
  ('Cc1ccc([N+](=O)[O-])c2c(NCCNC(=O)Cn3ccnc3[N+](=O)[O-])ccnc12', '>', 100),
  ('N#Cc1ccc(Oc2nc3ccccc3nc2-c2ccccc2)cc1', '>', 100),
  ('C=C1C(=O)O[C@@H]2[C@H]1C[C@@H](O)[C@H](C)[C@@](O)(C(=O)/C=C/C)[C@H]2OC(=O)C(C)CC (stereo not given in full)', '>', 36.9),
  ('CC[C@H](C)[C@H]1NC(=O)[C@@H](N[C@](C)(O)[C@@H](N)CC(C)C)[C@@H](C)OC(=O)[C@H](Cc2ccc(OC)cc2)N(C)C(=O)[C@@H]2CCCN2C(=O)[C@H](CC(C)C)NC(=O)[C@@H](C)C(=O)[C@H](C(C)C)OC(=O)C[C@@H]1O', '=', 0.575),
  ('Cn1ccnc1C(=O)/C=C/c1ccc(C(=O)Nc2ccc(Cl)cc2)cc1', '=', 2.43);
